Assay: Metabolic Stability (M = Mouse)
Format: in vitro ADME
MEASURED PARAMETER: Metabolic Stability M

> print(dat)
                                   molecule     measured.parameter    test.result
1  CC(NC(=O)N(C)C1CCN(C)CC1)c1ccc(C#Cc2ccco2)c(Cl)c1Cl (stereo not drawn) [Compound H0762]  Metabolic Stability M  High H High M
2  CC(NC(=O)N(C)C1CCN(C)CC1)c1ccc(C#Cc2ccsc2)c(Cl)c1Cl (stereo not drawn) [Compound H0759]  Metabolic Stability M  High H High M

###

Assay: Metabolic Stability (M = Mouse)
Format: in vitro ADME
MEASURED PARAMETER: Metabolic Stability M

> print(dat)
                                   compound        test.result
1  CC(NC(=O)N(C)C1CCN(C)CC1)c1ccc(-c2cccc(C#N)c2)c(Cl)c1Cl (centres unmarked)  Medium H Medium M
2  CCC(NC(=O)N(C)[C@@H]1CCN(C)CC1(C)C)c1ccc(-c2cnccn2)c(Cl)c1Cl (some centres unmarked)  Medium H Medium M
3  CN1CCC(N(C)C(=O)NC(c2ccc(-c3cncnc3)c(Cl)c2Cl)C(F)(F)F)CC1 (centres unmarked)               High
4  CC(NC(=O)N(C)C1CCN(C)CC1C)c1ccc(-c2cccnc2)c(Cl)c1Cl (centres unmarked)  Medium H Medium M

Fill blank: measured Metabolic Stability M of the compound CN1CCC(N(C)C(=O)NC(CC2CC2)c2ccc(-c3cnccn3)c(Cl)c2Cl)CC1 (centres unmarked) is ____.
High H High M

Fill blank: measured Metabolic Stability M of the compound C[C@@H](NC(=O)N(C)C1CCN(C)CC1)c1ccc(-c2cncc(F)n2)c(Cl)c1Cl is ____.
High

Fill blank: measured Metabolic Stability M of the compound CC(NC(=O)N(C)C1CCN(C)CC1)c1ccc(-c2cncnc2)c(Cl)c1Cl (centres unmarked) is ____.
High H High M

Fill blank: measured Metabolic Stability M of the compound COc1ccc(-c2ccc(C(C)NC(=O)N(C)C3CCN(C)CC3)c(Cl)c2Cl)cc1 (centres unmarked) is ____.
High
